// data source = ChEMBL document CHEMBL2086239

system: RPMI-8226; assay: Growth inhibition of human RPMI8226 cells after 48 hrs by SRB assay; assay type: functional; settings: RPMI-8226, 48 h
readout_type: log10 of GI50 (log10 of the value in µM)
Quick note: numbers are log10 of GI50, with µM as the unit.

Solved entries:
compound: COc1ccc(/C=C\c2cc(OC)c(OC)c(OC)c2)cc1OCC(=O)Nc1nc2ccccc2s1
recorded_value: -0.82
//
compound: COc1ccc2nc(NC(=O)COc3cc(/C=C\c4cc(OC)c(OC)c(OC)c4)ccc3OC)sc2c1
recorded_value: 0.73
//
compound: COc1ccc(/C=C\c2cc(OC)c(OC)c(OC)c2)cc1O [COMBRETASTATIN A4]
recorded_value: -2.52
//
compound: COc1ccc(/C=C\c2cc(OC)c(OC)c(OC)c2)cc1OCC(=O)Nc1nc2ccc(C(F)(F)F)cc2s1
recorded_value: 0.74
//
compound: COc1ccc(/C=C\c2cc(OC)c(OC)c(OC)c2)cc1OCC(=O)Nc1ccc2nc(C)sc2c1
recorded_value: 0.30

The reported value for COc1ccc(/C=C\c2cc(OC)c(OC)c(OC)c2)cc1OCC(=O)Nc1nc2ccc(OC(F)(F)F)cc2s1 in terms of log10 of GI50 is 0.77

The compound listed as COc1ccc(/C=C\c2cc(OC)c(OC)c(OC)c2)cc1OCC(=O)Nc1nc2ccc(F)cc2s1 has a reported log10 of GI50 of 0.80
